Test system: bloodstream trypomastigotes of T. cruzi (Y strain)
Experiment: Activity against bloodstream trypomastigotes, light microscopy counting
Format: cell-based
Conditions: Trypanosoma cruzi, 24 h of compound incubation, 95% confidence interval in brackets, read-out: Activity upon Bloodstream Forms EC90
Reported EC90 values for a set of compounds

Solved entries (count: 3):
Nc1ncnc2c1c(-c1ccc(Cl)c(F)c1)cn2[C@@H]1O[C@H](CO)[C@@H](O)[C@H]1O; > 30 µM
Nc1ncnc2c1c(-c1ccc(F)c(F)c1)cn2[C@@H]1O[C@H](CO)[C@@H](O)[C@H]1O; > 30 µM
Nc1ncnc2c1c(-c1ccc(Cl)c(Cl)c1)cn2[C@@H]1O[C@H](CO)C[C@H]1O; 16.7 µM

As a next step, examine the compound that follows.
Field EC90 (entry O=C(Cn1ccnc1[N+](=O)[O-])NCc1ccccc1 [Bz, Benznidazole, reference compound] ) reads 19.6 µM
